- assayed-target: human B1R receptor (hB1R) (Homo sapiens, UniProt P46663)
- Construct: expressed in transfected cells; host or cells: CHO K1 cells, stably transfected
- Sequence (P46663 1-353): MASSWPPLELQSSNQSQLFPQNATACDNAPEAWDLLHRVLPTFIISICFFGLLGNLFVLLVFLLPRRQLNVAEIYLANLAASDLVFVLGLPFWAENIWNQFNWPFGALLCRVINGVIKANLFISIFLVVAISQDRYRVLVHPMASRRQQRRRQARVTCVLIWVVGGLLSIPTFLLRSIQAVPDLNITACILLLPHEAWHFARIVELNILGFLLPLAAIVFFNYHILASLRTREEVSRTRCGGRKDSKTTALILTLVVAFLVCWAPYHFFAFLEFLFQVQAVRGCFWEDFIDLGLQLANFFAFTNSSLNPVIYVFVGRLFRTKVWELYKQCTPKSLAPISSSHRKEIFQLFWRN
- method-description: FLIPR Ca2+ functional study on bradykinin receptor 1, hB1R cells (CHO K1)
- Format: cell-based
- study-conditions: CHO-K1, 10 μM test substance; CHO K1 cells with human B1R; agonist Lys-Des-Arg9-bradykinin at EC80; read-out: B1R antagonism, human [10 μM] % inhibition
- Description: The agonistic or antagonistic activity of substances can be quantified on the bradykinin receptor 1 (B1R) of the species human and rat using ectopically expressing cell lines (CHO K1 cells) and with the aid of a Ca^2+-sensitive dye (Fluo-4) using a fluorescent imaging plate reader (FLIPR). […] The agonistic or antagonistic activity of substances can be determined on the bradykinin receptor 1 (B1R) of the species human and rat using the following assay. […]
readout-type: inhibition at 10 µM (%)
One number for each entry, in %.

Cc1ccc(S(=O)(=O)N2CCc3ccc(C(=O)N4CCC5(CC4)CCN(c4ccncc4)CC5)cc3C2)c2ccccc12 [Compound G-47]; 72
CC(C)(C)c1ccc(C(=O)N2CCc3ccc(C(=O)N4CCC5(CC4)CCN(c4ccncc4)CC5)cc3C2)s1 [Compound G-63]; 83
O=C(Cc1ccc2c(c1)N(S(=O)(=O)c1cccc3ccccc13)CCC2)N1CCC2(CCN(c3ccncc3)C2)C1 (stereo not shown) [Compound G-53]; 95
O=C(Cc1ccccc1Cl)N1CCc2ccc(C(=O)N3CCC4(CC3)CCN(c3ccncc3)CC4)cc2C1 [Compound G-43]; 99
Cc1ccc(Cl)c(S(=O)(=O)N2CCCc3ccc(CC(=O)N4CCC5(CC4)CCN(c4ccncc4)CC5)cc32)c1Cl [Compound G-66]; 98

Quick batch: inhibition at 10 µM for everything below.
1. COc1cc(C)c(S(=O)(=O)N2CCCc3ccc(CC(=O)N4CCC5(CCC(Oc6ccncc6)CC5)CC4)cc32)c(C)c1 [Compound G-30]
2. O=C(c1ccc2c(c1)CN(S(=O)(=O)c1ccc(Cl)c3ccccc13)CC2)N1CCC2(CC1)CCN(c1ccncc1)CC2 [Compound G-50]

Resp:
46
69
